experimental_target: sDSP S507F (Homo sapiens, UniProt P15924, S507F)
Construct: gene DSP; N-terminal fragment, residues 178-627
method_notes: biochemical
Set-up: FITC-sDSP degradation by calpain (1:20), fluorescence polarization after 60 min, per cent of calpain-only control
reported_conditions: degradation rate of DSP S507F by calpain; read-out: % of control remaining
Procedure: Fluorescence Polarization (FP) assays were conducted in […] format using a BioTek Synergy H4 plate reader with polarization capacity (Agilent; Savage, MD, USA). All samples were run at 25 °C using PBS pH 7.4, 1 mM DTT, 10 mM CaCl2, 5% DMSO, and […] FITC- DSP178–627, with 500 μM of each drug. […] Samples were excited at 485 nm, and polarization was monitored at 528 nm. […]
Where a name gives a salt, the structure may show the parent alone.
The entries below are paired with their reported remaining activity at 500 µM.
recorded_endpoint: remaining activity at 500 µM (%)

compound	experimental_target	u	value_reported
CC(C)=CCC/C(C)=C/CC/C(C)=C/CSc1ccccc1C(=O)O [salirasib]	sDSP S507F (Homo sapiens, UniProt P15924, S507F)	%	26
CCCCCCCCCCCCCCCC(=O)NCCO [palmitoylethanolamide]	sDSP S507F (Homo sapiens, UniProt P15924, S507F)	%	3
Cc1ccc(NC(=O)c2ccc(CN3CCN(C)CC3)cc2)cc1Nc1nccc(-c2cccnc2)n1 [Imatinib]	sDSP S507F (Homo sapiens, UniProt P15924, S507F)	%	108
CC/C=C\C/C=C\C/C=C\C/C=C\C/C=C\C/C=C\CCC(=O)O [Docosahexaenoic Acid]	sDSP S507F (Homo sapiens, UniProt P15924, S507F)	%	104
CCCCCCCCc1ccc(CCC(N)(CO)CO)cc1 [Fingolimod]	sDSP S507F (Homo sapiens, UniProt P15924, S507F)	%	32
O=C(NC1CCN(CCCCC2(C(=O)NCC(F)(F)F)c3ccccc3-c3ccccc32)CC1)c1ccccc1-c1ccc(C(F)(F)F)cc1 [Lomitapide]	sDSP S507F (Homo sapiens, UniProt P15924, S507F)	%	4
NC1(Cc2ccc(Cl)cc2)CCN(c2ncnc3[nH]ccc23)CC1 [CCT128930]	sDSP S507F (Homo sapiens, UniProt P15924, S507F)	%	20
Fc1ccc([C@@H]2CCNC[C@H]2COc2ccc3c(c2)OCO3)cc1 [Paraxetine]	sDSP S507F (Homo sapiens, UniProt P15924, S507F)	%	133
CC(=O)O[C@H]1C(=O)[C@@]2(C)[C@H]([C@H](OC(=O)c3ccccc3)[C@]3(O)C[C@H](OC(=O)[C@H](O)[C@@H](NC(=O)c4ccccc4)c4ccccc4)C(C)=C1C3(C)C)[C@]1(OC(C)=O)CO[C@@H]1C[C@@H]2O [Taxol]	sDSP S507F (Homo sapiens, UniProt P15924, S507F)	%	34
CCN(CC)CC#CCOC(=O)C(O)(c1ccccc1)C1CCCCC1 (stereo not shown) [Oxybutynin chloride]	sDSP S507F (Homo sapiens, UniProt P15924, S507F)	%	77
CN1CCN(C2=Nc3ccccc3Oc3ccc(Cl)cc32)CC1 [Loxipine Succinate]	sDSP S507F (Homo sapiens, UniProt P15924, S507F)	%	107
CNC(=O)c1c(F)cccc1Nc1nc(Nc2cc3c(cc2OC)CCN3C(=O)CN(C)C)nc2[nH]ccc12 [GSK1838705A]	sDSP S507F (Homo sapiens, UniProt P15924, S507F)	%	24
CCCCc1ncc(/C=C(\Cc2cccs2)C(=O)O)n1Cc1ccc(C(=O)O)cc1 [eprosarten mesylate]	sDSP S507F (Homo sapiens, UniProt P15924, S507F)	%	31

---

The entries below are paired with their reported remaining activity at 500 µM.
experimental_target: sDSP (DSP178–627) (Homo sapiens, UniProt P15924)
Construct: gene DSP; N-terminal spectrin repeat/SH3 fragment, residues 178-627; pGEX-1 GST fusion cut with thrombin, E. coli BL21(DE3); fluorescein-5-maleimide label on exposed cysteines (C405, C524)
Sequence (P15924 178-627): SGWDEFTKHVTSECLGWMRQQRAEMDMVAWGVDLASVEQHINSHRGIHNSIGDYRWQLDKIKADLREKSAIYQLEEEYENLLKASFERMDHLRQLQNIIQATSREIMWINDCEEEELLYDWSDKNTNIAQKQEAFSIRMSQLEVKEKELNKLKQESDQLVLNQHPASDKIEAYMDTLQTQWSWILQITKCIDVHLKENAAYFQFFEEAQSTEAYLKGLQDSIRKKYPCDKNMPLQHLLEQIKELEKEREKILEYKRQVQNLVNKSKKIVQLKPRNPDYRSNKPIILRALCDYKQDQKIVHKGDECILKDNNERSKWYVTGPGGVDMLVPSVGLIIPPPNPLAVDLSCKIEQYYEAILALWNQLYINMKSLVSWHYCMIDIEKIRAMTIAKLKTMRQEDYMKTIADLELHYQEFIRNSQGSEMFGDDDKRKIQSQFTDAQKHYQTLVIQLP
method_notes: biochemical
Parameters: FITC-sDSP degradation by calpain (1:20), fluorescence polarization after 60 min, per cent of calpain-only control
reported_conditions: degradation rate of DSP WT by calpain; read-out: % of control remaining
Where a name gives a salt, the structure may show the parent alone.

compound	u	remaining activity at 500 µM
CCCCc1ncc(/C=C(\Cc2cccs2)C(=O)O)n1Cc1ccc(C(=O)O)cc1 [eprosarten mesylate]	%	30
Cc1ccc(NC(=O)c2ccc(CN3CCN(C)CC3)cc2)cc1Nc1nccc(-c2cccnc2)n1	%	-6
CCCCCCCCCCCCOS(=O)(=O)O	%	24
CCCCCCCCCCCCCCCC(=O)NCCO [palmitoylethanolamide]	%	22
CC(C)=CCC/C(C)=C/CC/C(C)=C/CSc1ccccc1C(=O)O	%	32
CCCCCCCCc1ccc(CCC(N)(CO)CO)cc1	%	35
Cn1cc(-c2ccc(F)c(C(F)(F)F)c2)nc1C1CCN(c2ncnc3[nH]ncc23)CC1	%	67
O=C(NC1CCN(CCCCC2(C(=O)NCC(F)(F)F)c3ccccc3-c3ccccc32)CC1)c1ccccc1-c1ccc(C(F)(F)F)cc1 [Lomitapide]	%	118
CC(=O)O[C@H]1C(=O)[C@@]2(C)[C@H]([C@H](OC(=O)c3ccccc3)[C@]3(O)C[C@H](OC(=O)[C@H](O)[C@@H](NC(=O)c4ccccc4)c4ccccc4)C(C)=C1C3(C)C)[C@]1(OC(C)=O)CO[C@@H]1C[C@@H]2O	%	48
CC/C=C\C/C=C\C/C=C\C/C=C\C/C=C\C/C=C\CCC(=O)O	%	-12
CCCCc1oc2ccc(NS(C)(=O)=O)cc2c1C(=O)c1ccc(OCCCN(CCCC)CCCC)cc1 [Dronedarone HCl]	%	143
C=C(c1ccc(C(=O)O)cc1)c1cc2c(cc1C)C(C)(C)CCC2(C)C	%	81
Fc1ccc([C@@H]2CCNC[C@H]2COc2ccc3c(c2)OCO3)cc1	%	-8
CCN(CC)CC#CCOC(=O)C(O)(c1ccccc1)C1CCCCC1 (stereo not drawn) [Oxybutynin chloride]	%	91
CN1CCN(C2=Nc3ccccc3Oc3ccc(Cl)cc32)CC1 [Loxipine Succinate]	%	-8
NC1(Cc2ccc(Cl)cc2)CCN(c2ncnc3[nH]ccc23)CC1	%	54
CNC(=O)c1c(F)cccc1Nc1nc(Nc2cc3c(cc2OC)CCN3C(=O)CN(C)C)nc2[nH]ccc12 [GSK1838705A]	%	35
COc1ccc(-c2cc(=O)c3c(O)cc(O)cc3o2)cc1O	%	84

---

experimental_target: sDSP (DSP178–627) (Homo sapiens, UniProt P15924, R451G)
Construct: gene DSP; N-terminal spectrin repeat/SH3 fragment, residues 178-627; pGEX-1 GST fusion cut with thrombin, E. coli BL21(DE3); fluorescein-5-maleimide label on exposed cysteines (C405, C524)
method_notes: biochemical
Set-up: FITC-sDSP degradation by calpain (1:20), fluorescence polarization after 60 min, per cent of calpain-only control
reported_conditions: degradation rate of DSP R451G by calpain; read-out: % of control remaining
Where a name gives a salt, the structure may show the parent alone.
Assign labels as follows, please: yes (1) for remaining activity at 500 µM below 30%; no (0) for remaining activity at 500 µM equal to or exceeding 30%.

compound	cat
C=C(c1ccc(C(=O)O)cc1)c1cc2c(cc1C)C(C)(C)CCC2(C)C [Bexarotene]	no (0)
CCCCc1ncc(/C=C(\Cc2cccs2)C(=O)O)n1Cc1ccc(C(=O)O)cc1 [eprosarten mesylate]	no (0)
CNC(=O)c1c(F)cccc1Nc1nc(Nc2cc3c(cc2OC)CCN3C(=O)CN(C)C)nc2[nH]ccc12 [GSK1838705A]	no (0)
CCCCCCCCCCCCOS(=O)(=O)O [SDS]	yes (1)
CCN(CC)CC#CCOC(=O)C(O)(c1ccccc1)C1CCCCC1 (stereo not shown) [Oxybutynin chloride]	no (0)
CC/C=C\C/C=C\C/C=C\C/C=C\C/C=C\C/C=C\CCC(=O)O [Docosahexaenoic Acid]	no (0)
CC(C)=CCC/C(C)=C/CC/C(C)=C/CSc1ccccc1C(=O)O [salirasib]	yes (1)
CCCCCCCCCCCCCCCC(=O)NCCO [palmitoylethanolamide]	yes (1)
CN1CCN(C2=Nc3ccccc3Oc3ccc(Cl)cc32)CC1 [Loxipine Succinate]	yes (1)
